- Tested on: NCI-H522 lung
- experimental.protocol: NCI-60 one-dose screen, 48 h
- particulars: 10 µM unless noted
About 83,000 compounds went through this panel and 20% of them were active in at least one assay; those are over-represented in the sample as a whole. Active and inactive are the calls of the source. Rule for the calls: active = growth percent below 10; inactive = the rest.
Labels: Yes = active, No = inactive

>>> df
                                   compound  group
0  COc1ccc2[nH]cc(-c3noc(C(=O)c4cn(C)c5ccc(F)cc45)n3)c2c1     No
1  O=C(N=Nc1c(O)[nH]c2ccc(Br)cc12)c1cc(-c2ccccc2)on1     No
2  O=C1OCC2=C1C(c1ccncc1)c1cc3c(cc1N2CCO)OCO3 (stereo not given)     No
3   COc1ccc(-c2n[nH]nc2-c2csc3ccccc23)cc1OC    Yes
4  c1csc(C2=NN3C(C2)c2ccccc2OC3c2ccncc2)c1 (stereo not given)     No
5  COc1ccc2c(c1)O/C(=C\c1cccc(OCC(=O)Nc3nc4c(s3)CCCC4)c1)C2=O    Yes
6  Cc1cc(C)nc(SC2=C(Nc3ccc(O)cc3)C(=O)N(Cc3ccccc3)C2=O)n1     No
7  CCCc1cc(=O)n2c(C(=O)Nc3ccc(F)cc3)c(C(=O)Nc3ccc(F)cc3)sc2n1     No
8  CCCCN(CCCC)CCCn1c(-c2ccccc2)ccc1-c1ccccc1     No
9  O=C(Cc1ccc(/C=C/C(=O)c2ncc[nH]2)cc1)Nc1ccccc1     No

###

- System: OVCAR-5 ovarian
- experimental.protocol: NCI-60 one-dose screen, 48 h (100 = growth as untreated, 0 = no growth, -100 = all killed)
- particulars: 10 µM unless noted
About 83,000 compounds went through this panel and 20% of them were active in at least one assay; those are over-represented in the sample as a whole. Calls of active or inactive are those of the source. How the source made its calls: active means growth percent below 10; inactive means the rest.
measured.property: growth

                                 smiles_str                     reading
0  COc1cc(-c2nn(C)nc2-c2cc3ccccc3s2)cc(OC)c1OC            57.2% (inactive)
1              O=c1nc2oc3ccc4ccccc4c3cc-2s1            53.3% (inactive)
2  COc1cccc(-c2nn(C(C)(C)C)cc2-c2ccnc(NCCCNS(=O)(=O)c3ccc(C)cc3)c2)c1             105% (inactive)
3  CN(C)[C@@H]1C(=O)C(C(=O)NCc2nc3[nH]cnc(=S)c3[nH]2)=C(O)[C@@]2(O)C(=O)C3=C(O)c4c(O)cccc4[C@@](C)(O)[C@H]3C[C@@H]12            36.3% (inactive)
4  C#CCOc1ccc2ncnc(Nc3cccc(CNC(=O)CCl)c3)c2c1  65.9% [8.25 µM] (inactive)
5  CCCCN(CCCC)CCCn1c(-c2ccccc2)ccc1-c1ccccc1            73.4% (inactive)
6  CC(C)n1c(/C=C/[C@@H](O)C[C@@H](O)CC(=O)O)c(-c2ccc(F)cc2)c2ccccc21            85.8% (inactive)
7  Cc1nn(-c2ccc(F)cc2)c2ncnc(Nc3ccc(NC(=O)Nc4ccc(Cl)c(C(F)(F)F)c4)cc3)c12            70.8% (inactive)
8  CS(=O)(=O)c1ccc(-n2nc(-c3ccc(Br)cc3)c3ccccc3c2=O)cc1             108% (inactive)

###

Here, each record is paired with measured growth data.
- Tested on: CCRF-CEM leukemia
- experimental.protocol: NCI-60 one-dose screen, 48 h (100 = growth as untreated, 0 = no growth, -100 = all killed)
- particulars: 10 µM unless noted
About 83,000 compounds went through this panel and 20% of them were active in at least one assay; those are over-represented in the sample as a whole. Active and inactive are the calls of the source. How the source made its calls: active means growth percent below 10; inactive means the rest.
measured.property: growth

                                 smiles_str           reading
0                O=C1CSC(=S)N1CCc1ccc(O)cc1  51.1% (inactive)
1  O=S(=O)(Nc1ccc(NS(=O)(=O)c2ccccc2)c(Cl)c1)c1ccccc1    92% (inactive)
2  OCCNc1nccc(N2CCN(c3ccnc4cc(Cl)ccc34)CC2)n1  66.5% (inactive)
3     Nc1ccc(-c2cc3c(NCc4ccccc4)ncnc3s2)cc1  81.9% (inactive)
4  FC(F)(F)c1nc2c(NCc3ccc(-c4ccccc4)cc3)cccc2[nH]1  44.8% (inactive)
5  O=S(=O)(Nc1ccc(I)cc1F)c1ccc(-c2cnc(C3CC3)o2)cc1  61.1% (inactive)
6        COc1ccc(/C=C/C(=O)c2cc(O)ccc2O)cc1  41.1% (inactive)
7  O=[N+]([O-])c1ccc(Nc2nc(NCCN3CCOCC3)ncc2[N+](=O)[O-])cc1  98.1% (inactive)
8  CC(C)c1c(C(=O)c2ccccc2)c(-c2ccccc2)c(-c2ccc(F)cc2)n1CC[C@@H](O)C[C@@H](O)CC(=O)O  81.4% (inactive)
9   O=C1/C(=C(/c2ccccc2)N2CCOCC2)Cc2ccccc21  22.6% (inactive)

###

- Tested on: HCC-2998 colon
- experimental.protocol: NCI-60 one-dose screen, 48 h (100 = growth as untreated, 0 = no growth, -100 = all killed)
- particulars: 10 µM unless noted
Compounds without any hit were thinned out: in the full panel of roughly 83,000, 20% have a hit.
Overview of reported growth across a group of compounds:
measured.property: growth (%)

compound	study.system	reading
Oc1cccc2ccc(N/N=C/c3cc(CN4CCOCC4)c(O)c4ncccc34)nc12	HCC-2998 colon	26.6
O=C(O)c1c(=O)cccc2ssc12	HCC-2998 colon	13.5
O=C(CCCCC(=O)N/N=C\c1ccccc1O)N/N=C\c1ccccc1O	HCC-2998 colon	21.4
COc1ccc(C(=O)c2sc3nc4c(c(-c5cccnc5)c3c2N)CCCC4)cc1OC	HCC-2998 colon	110
CC(=O)O[C@H]1[C@@H]2OC(=O)C(CSc3ccccc3)[C@@H]2C[C@H]2O[C@]2(C)CC/C=C(\C)CCC[C@@H]1C (stereo partly drawn)	HCC-2998 colon	80.7
CNC(=O)c1cc(Oc2ccc(NC(=O)Nc3ccc(Cl)c(SC)c3)c(F)c2)ccn1	HCC-2998 colon	51.3
CC(C)CC1C(=O)N2CCC[C@H]2C2(O)O[C@](NC(=O)C3C=C4c5cccc6[nH]c(Br)c(c56)C[C@H]4N(C)C3)(C(C)C)C(=O)N12 (stereo partly drawn)	HCC-2998 colon	89.1
O=C(NCCN1CCOCC1)Nc1ccc(-c2cc3c(Nc4ccc(Oc5cccc(C(F)(F)F)c5)c(Cl)c4)ncnc3s2)cc1	HCC-2998 colon	5.37
COc1ccc(C(=O)c2sc3nc(C)cc(C)c3c2N)cc1OC	HCC-2998 colon	99.1
O=C(N/N=C/c1ccccc1O)c1ccccc1Nc1ccnc(C(F)(F)F)c1	HCC-2998 colon	46
CC[N+](CC)=c1sc2c(s1)C(c1ccc(Cl)cc1)Oc1ccc(Cl)cc1-2 (stereo not drawn)	HCC-2998 colon	-15.1
CC(=O)O[C@H]1CC[C@]2(C)[C@H]3CC=C4[C@@H]5CC(C)(C)CC[C@]5(C(=O)NCCNCCN)CC[C@@]4(C)[C@]3(C)CC[C@H]2C1(C)C	HCC-2998 colon	-92.1
CSc1ccc(SC2c3ccc(C)cc3Oc3nc(N)c(C#N)c(N)c32)cc1 (stereo not drawn)	HCC-2998 colon	-88.2
N#Cc1cnn(-c2nc3c(Cl)cccc3s2)c1N	HCC-2998 colon	91.1
CC[C@]1(O)C[C@@H]2CN(CCc3c([nH]c4ccccc34)[C@@](C(=O)OC)(c3cc4c(cc3OC)N(C)[C@H]3[C@@](O)(C(N)=O)[C@H](O)[C@]5(CC)[C@@H]6C[C@@H]6CN6CC[C@]43[C@@H]65)C2)C1	HCC-2998 colon	24.9
CC1=CC(=NN=c2cc(C)n([O-])c(C)c2)C=C(C)[N+]1=O	HCC-2998 colon	63.2
O=c1cc(/C(=C2/C=CC=N2)c2ccc[nH]2)c2cc(Cl)ccc2o1	HCC-2998 colon	89.7
COc1cc2c(cc1-c1c(C)noc1C)ncc1nc(C3CCOCC3)n([C@@H](C)COC(F)F)c12	HCC-2998 colon	43.3

###

- Test system: PC-3 prostate
- experimental.protocol: NCI-60 one-dose screen, 48 h (100 = growth as untreated, 0 = no growth, -100 = all killed)
- particulars: 10 µM unless noted
Compounds without any hit were thinned out: in the full panel of roughly 83,000, 20% have a hit.
Each record is given yes if its reported growth is strictly below 70%. Records at or above 70% are given no.

>>> df
                                 smiles_str  group
0  Nc1ccc(S(=O)(=O)O)c2ccc(N=Nc3ccc(N=Nc4ccc(S(=O)(=O)O)cc4)c4ccccc34)c(O)c12     no
1  COc1cc(Nc2cc(C)nc(N3CCN(c4ccnc5cc(Cl)ccc45)CC3)n2)cc(OC)c1    yes
2  COc1cc2c(cc1-c1c(C)noc1C)ncc1nc(-c3ccccn3)n([C@H](C)COC(F)F)c12    yes
3               O=c1ccccc(-c2ccc(Br)cc2)c1O    yes
